System: HeLa Kyoto
Test: melting temperature (median over replicates), in situ; higher = more thermally stable
Conditions: cell cycle stage: G1/S
Hi there, I'd appreciate the recorded melting temperature for every entry that follows.
Give the value, in units of °C, as a plain number.

Query :: Using the record for MASILRSPQALQLTLALIKPDAVAHPLILEAVHQQILSNKFLIVRMRELLWRKEDCQRFYREHEGRFFYQRLVEFMASGPIRAYILAHKDAIQLWRTLMGPTRVFRARHVAPDSIRGSFGLTDTRNTTHGSDSVVSASREIAAFFPDFSEQRWYEEEEPQLRCGPVCYSPEGGVHYVAGTGGLGPA [NME6] , report its melting temperature.
Result :: 51.3

Query :: Okay, and MPHSYPALSAEQKKELSDIALRIVAPGKGILAADESVGSMAKRLSQIGVENTEENRRLYRQVLFSADDRVKKCIGGVIFFHETLYQKDDNGVPFVRTIQDKGIVVGIKVDKGVVPLAGTDGETTTQGLDGLSERCAQYKKDGADFAKWRCVLKISERTPSALAILENANVLARYASICQQNGIVPIVEPEILPDGDHDLKRCQYVTEKVLAAVYKALSDHHVYLEGTLLKPNMVTPGHACPIKYTPEEIAMATVTALRRTVPPAVPGVTFLSGGQSEEEASFNLNAINRCPLPRPWALTFSYGRALQASALNAWRGQRDNAGAATEEFIKRAEVNGLAAQGKYEGSGEDGGAAAQSLYIANHAY [ALDOC] ?
Result :: 56.9

Query :: Okay, and MSAPLDAALHALQEEQARLKMRLWDLQQLRKELGDSPKDKVPFSVPKIPLVFRGHTQQDPEVPKSLVSNLRIHCPLLAGSALITFDDPKVAEQVLQQKEHTINMEECRLRVQVQPLELPMVTTIQMSSQLSGRRVLVTGFPASLRLSEEELLDKLEIFFGKTRNGGGDVDVRELLPGSVMLGFARDGVAQRLCQIGQFTVPLGGQQVPLRVSPYVNGEIQKAEIRSQPVPRSVLVLNIPDILDGPELHDVLEIHFQKPTRGGGEVEALTVVPQGQQGLAVFTSESG [IFI35] ?
Result :: 54.6

Query :: Okay, and MAPWTLWRCCQRVVGWVPVLFITFVVVWSYYAYVVELCVFTIFGNEENGKTVVYLVAFHLFFVMFVWSYWMTIFTSPASPSKEFYLSNSEKERYEKEFSQERQQEILRRAARALPIYTTSASKTIRYCEKCQLIKPDRAHHCSACDSCILKMDHHCPWVNNCVGFSNYKFFLLFLLYSLLYCLFVAATVLEYFIKFWTNELTDTRAKFHVLFLFFVSAMFFISVLSLFSYHCWLVGKNRTTIESFRAPTFSYGPDGNGFSLGCSKNWRQVFGDEKKYWLLPIFSSLGDGCSFPTRLVGMDPEQASVTNQNEYARSSGSNQPFPIKPLSESKNRLLDSESQWLENGAEEGIVKSGTNNHVTVAIEN [ZDHHC20] ?
Result :: 55.1

Query :: Okay, and MAAALFVLLGFALLGTHGASGAAGFVQAPLSQQRWVGGSVELHCEAVGSPVPEIQWWFEGQGPNDTCSQLWDGARLDRVHIHATYHQHAASTISIDTLVEEDTGTYECRASNDPDRNHLTRAPRVKWVRAQAVVLVLEPGTVFTTVEDLGSKILLTCSLNDSATEVTGHRWLKGGVVLKEDALPGQKTEFKVDSDDQWGEYSCVFLPEPMGTANIQLHGPPRVKAVKSSEHINEGETAMLVCKSESVPPVTDWAWYKITDSEDKALMNGSESRFFVSSSQGRSELHIENLNMEADPGQYRCNGTSSKGSDQAIITLRVRSHLAALWPFLGIVAEVLVLVTIIFIYEKRRKPEDVLDDDDAGSAPLKSSGQHQNDKGKNVRQRNSS [BSG] ?
Result :: 59.1

====

Test system: HeLa Kyoto
Assay: melting temperature (median over replicates), in situ; higher = more thermally stable
Settings: cell cycle stage: mitosis
measureName: melting temperature
Answers without a unit are incomplete; give the number and then its unit.

Query :: Using the record for MTSFRLALIQLQISSIKSDNVTRACSFIREAATQGAKIVSLPECFNSPYGAKYFPEYAEKIPGESTQKLSEVAKECSIYLIGGSIPEEDAGKLYNTCAVFGPDGTLLAKYRKIHLFDIDVPGKITFQESKTLSPGDSFSTFDTPYCRVGLGICYDMRFAELAQIYAQRGCQLLVYPGAFNLTTGPAHWELLQRSRAVDNQVYVATASPARDDKASYVAWGHSTVVNPWGEVLAKAGTEEAIVYSDIDLKKLAEIRQQIPVFRQKRSDLYAVEMKKP [NIT2] , report its melting temperature.
Result :: 54.4 °C

Query :: Okay, and MRHLPYFCRGQVVRGFGRGSKQLGIPTANFPEQVVDNLPADISTGIYYGWASVGSGDVHKMVVSIGWNPYYKNTKKSMETHIMHTFKEDFYGEILNVAIVGYLRPEKNFDSLESLISAIQGDIEEAKKRLELPEHLKIKEDNFFQVSKSKIMNGH [RFK] ?
Result :: 54.1 °C

Query :: Okay, and MAVNVYSTSVTSDNLSRHDMLAWINESLQLNLTKIEQLCSGAAYCQFMDMLFPGSIALKKVKFQAKLEHEYIQNFKILQAGFKRMGVDKIIPVDKLVKGKFQDNFEFVQWFKKFFDANYDGKDYDPVAARQGQETAVAPSLVAPALNKPKKPLTSSSAAPQRPISTQRTAAAPKAGPGVVRKNPGVGNGDDEAAELMQQVNVLKLTVEDLEKERDFYFGKLRNIELICQENEGENDPVLQRIVDILYATDEGFVIPDEGGPQEEQEEY [MAPRE1] ?
Result :: 51.2 °C

Query :: Okay, and MSEKENNFPPLPKFIPVKPCFYQNFSDEIPVEHQVLVKRIYRLWMFYCATLGVNLIACLAWWIGGGSGTNFGLAFVWLLLFTPCGYVCWFRPVYKAFRADSSFNFMAFFFIFGAQFVLTVIQAIGFSGWGACGWLSAIGFFQYSPGAAVVMLLPAIMFSVSAAMMAIAIMKVHRIYRGAGGSFQKAQTEWNTGTWRNPPSREAQYNNFSGNSLPEYPTVPSYPGSGQWP [SCAMP4] ?
Result :: 60.3 °C

Query :: Okay, and MASILRSPQALQLTLALIKPDAVAHPLILEAVHQQILSNKFLIVRMRELLWRKEDCQRFYREHEGRFFYQRLVEFMASGPIRAYILAHKDAIQLWRTLMGPTRVFRARHVAPDSIRGSFGLTDTRNTTHGSDSVVSASREIAAFFPDFSEQRWYEEEEPQLRCGPVCYSPEGGVHYVAGTGGLGPA [NME6] ?
Result :: 55.2 °C

Query :: Okay, and MSRYLLPLSALGTVAGAAVLLKDYVTGGACPSKATIPGKTVIVTGANTGIGKQTALELARRGGNIILACRDMEKCEAAAKDIRGETLNHHVNARHLDLASLKSIREFAAKIIEEEERVDILINNAGVMRCPHWTTEDGFEMQFGVNHLGHFLLTNLLLDKLKASAPSRIINLSSLAHVAGHIDFDDLNWQTRKYNTKAAYCQSKLAIVLFTKELSRRLQGSGVTVNALHPGVARTELGRHTGIHGSTFSSTTLGPIFWLLVKSPELAAQPSTYLAVAEELADVSGKYFDGLKQKAPAPEAEDEEVARRLWAESARLVGLEAPSVREQPLPR [RDH13] ?
Result :: 51.6 °C

====

System: HeLa Kyoto
Test: thermal stability score vs G1/S (z-score of summed log2 fold changes over temperatures); higher = more thermally stable than in G1/S
Conditions: cell cycle stage: mitosis
measureName: thermal stability score
Would you mind answering with just the numeric figure?

Query :: Using the record for MGNVLAASSPPAGPPPPPAPALVGLPPPPPSPPGFTLPPLGGSLGAGTSTSRSSERTPGAATASASGAAEDGACGCLPNPGTFEECHRKCKELFPIQMEGVKLTVNKGLSNHFQVNHTVALSTIGESNYHFGVTYVGTKQLSPTEAFPVLVGDMDNSGSLNAQVIHQLGPGLRSKMAIQTQQSKFVNWQVDGEYRGSDFTAAVTLGNPDVLVGSGILVAHYLQSITPCLALGGELVYHRRPGEEGTVMSLAGKYTLNNWLATVTLGQAGMHATYYHKASDQLQVGVEFEASTRMQDTSVSFGYQLDLPKANLLFKGSVDSNWIVGATLEKKLPPLPLTLALGAFLNHRKNKFQCGFGLTIG [TOMM40] , report its thermal stability score.
Result :: -3.48

Query :: Okay, and MSSLIRRVISTAKAPGAIGPYSQAVLVDRTIYISGQIGMDPSSGQLVSGGVAEEAKQALKNMGEILKAAGCDFTNVVKTTVLLADINDFNTVNEIYKQYFKSNFPARAAYQVAALPKGSRIEIEAVAIQGPLTTASL [HRSP12] ?
Result :: -1.85

====

Test system: HeLa Kyoto
Assay: melting temperature (median over replicates), in situ; higher = more thermally stable
Conditions: cell cycle stage: G1/S
measureName: melting temperature (°C)
Give the value, in units of °C, as a plain number.

Query :: Using the record for MSAEVETSEGVDESEKKNSGALEKENQMRMADLSELLKEGTKEAHDRAENTQFVKDFLKGNIKKELFKLATTALYFTYSALEEEMERNKDHPAFAPLYFPMELHRKEALTKDMEYFFGENWEEQVQCPKAAQKYVERIHYIGQNEPELLVAHAYTRYMGDLSGGQVLKKVAQRALKLPSTGEGTQFYLFENVDNAQQFKQLYRARMNALDLNMKTKERIVEEANKAFEYNMQIFNELDQAGSTLARETLEDGFPVHDGKGDMRKCPFYAAEQDKGALEGSSCPFRTAMAVLRKPSLQFILAAGVALAAGLLAWYYM [HMOX2] , report its melting temperature.
Result :: 49.4

Query :: Okay, and MLAVHFDKPGGPENLYVKEVAKPSPGEGEVLLKVAASALNRADLMQRQGQYDPPPGASNILGLEASGHVAELGPGCQGHWKIGDTAMALLPGGGQAQYVTVPEGLLMPIPEGLTLTQAAAIPEAWLTAFQLLHLVGNVQAGDYVLIHAGLSGVGTAAIQLTRMAGAIPLVTAGSQKKLQMAEKLGAAAGFNYKKEDFSEATLKFTKGAGVNLILDCIGGSYWEKNVNCLALDGRWVLYGLMGGGDINGPLFSKLLFKRGSLITSLLRSRDNKYKQMLVNAFTEQILPHFSTEGPQRLLPVLDRIYPVTEIQEAHKYMEANKNIGKIVLELPQ [TP53I3] ?
Result :: 58.7

Query :: Okay, and MELIQDTSRPPLEYVKGVPLIKYFAEALGPLQSFQARPDDLLINTYPKSGTTWVSQILDMIYQGGDLEKCNRAPIYVRVPFLEVNDPGEPSGLETLKDTPPPRLIKSHLPLALLPQTLLDQKVKVVYVARNPKDVAVSYYHFHRMEKAHPEPGTWDSFLEKFMAGEVSYGSWYQHVQEWWELSRTHPVLYLFYEDMKENPKREIQKILEFVGRSLPEETMDFMVQHTSFKEMKKNPMTNYTTVPQELMDHSISPFMRKGMAGDWKTTFTVAQNERFDADYAEKMAGCSLSFRSEL [SULT1A4] ?
Result :: 48.5
